# System: NCI-H226
# ASSAY_INFO: NCI 60 cell line screen (SRB), Non-Small Cell Lung Cancer
# Assay type: cell-based
# MEASUREMENT_SETUP: PG=+50
ASSAY_METRIC: Log10GI50

1. CC1=C(C=Cc2cccc(C=CC3=C(C)C4CCC(C)C5CCC6(C)OOC45C(O3)O6)c2)OC2OC3(C)CCC4C(C)CCC1C24OO3 (stereo not shown) [VII-f] ... −4.61 log10M
2. C[C@@H]1CC[C@H]2[C@@H](C)C(=O)O[C@@H]3O[C@]4(C)CC[C@@H]1[C@]32OO4 ... >−4.00 log10M
3. CC1=C(C=Cc2cccc(C=CC3=C(C)C4CCC(C)C5CCC6(C)OOC45C(O3)O6)c2)OC2OC3(C)CCC4C(C)CCC1C24OO3 (stereo not shown) [VII-g] ... −4.91 log10M

// next item, Log10GI50 requested
Output measured Log10GI50 for this item: CC1=C(C=Cc2cccc(C=CC3=C(C)C4CCC(C)C5CCC6(C)OOC45C(O3)O6)c2)OC2OC3(C)CCC4C(C)CCC1C24OO3 (stereo not shown) [VII-h]
>−4.00 log10M

====

# reported Log10GI50; entries follow
# System: UACC-62
# ASSAY_INFO: NCI 60 cell line screen (SRB), Melanoma
# Assay type: cell-based
# MEASUREMENT_SETUP: PG=+50

The examples below pair each entry with its known result.
1. CC1=C(C=Cc2cccc(C=CC3=C(C)C4CCC(C)C5CCC6(C)OOC45C(O3)O6)c2)OC2OC3(C)CCC4C(C)CCC1C24OO3 (centres unmarked) [VII-h] ... −6.91 log10M
2. CC1=C(C=Cc2cccc(C=CC3=C(C)C4CCC(C)C5CCC6(C)OOC45C(O3)O6)c2)OC2OC3(C)CCC4C(C)CCC1C24OO3 (centres unmarked) [VII-f] ... −4.90 log10M
3. CC(=O)O[C@H]1C(=O)[C@@]2(C)[C@H]([C@H](OC(=O)c3ccccc3)[C@]3(O)C[C@H](OC(=O)[C@H](O)[C@@H](NC(=O)c4ccccc4)c4ccccc4)C(C)=C1C3(C)C)[C@]1(OC(C)=O)CO[C@@H]1C[C@@H]2O [Paclitaxel, paclitaxel, reference compound] ... −10.46 log10M
4. CC1=C(C=Cc2cccc(C=CC3=C(C)C4CCC(C)C5CCC6(C)OOC45C(O3)O6)c2)OC2OC3(C)CCC4C(C)CCC1C24OO3 (centres unmarked) [VII-g] ... −5.46 log10M

Output measured Log10GI50 for this item: `C[C@@H]1CC[C@H]2[C@@H](C)C(=O)O[C@@H]3O[C@]4(C)CC[C@@H]1[C@]32OO4`
>−4.00 log10M

====

# reported Log10TGI; entries follow
# Test system: EKVX
# ASSAY_INFO: NCI 60 cell line screen (SRB), Non-Small Cell Lung Cancer
# Format: cell-based
# MEASUREMENT_SETUP: PG=0

1. C[C@@H]1CC[C@H]2[C@@H](C)C(=O)O[C@@H]3O[C@]4(C)CC[C@@H]1[C@]32OO4 ... >−4.00 log10M

Output measured Log10TGI for this item: CC1=C(C=Cc2cccc(C=CC3=C(C)C4CCC(C)C5CCC6(C)OOC45C(O3)O6)c2)OC2OC3(C)CCC4C(C)CCC1C24OO3 (stereo not shown) [VII-g]
>−4.00 log10M

Output measured Log10TGI for this item: CC1=C(C=Cc2cccc(C=CC3=C(C)C4CCC(C)C5CCC6(C)OOC45C(O3)O6)c2)OC2OC3(C)CCC4C(C)CCC1C24OO3 (stereo not shown) [VII-f]
−4.58 log10M

Output measured Log10TGI for this item: CC1=C(C=Cc2cccc(C=CC3=C(C)C4CCC(C)C5CCC6(C)OOC45C(O3)O6)c2)OC2OC3(C)CCC4C(C)CCC1C24OO3 (stereo not shown) [VII-h]
>−4.00 log10M

====

# System: 60 cell line panel
# ASSAY_INFO: NCI 60 cell line screen (SRB), whole panel
# Type: cell-based
# MEASUREMENT_SETUP: panel summary
# Experimental: The screening assay is performed on 96-well microtitre plates. […] The minimum amount of compound required for a one-time evaluation in the routine screen can be calculated from the knowledge that each test requires a total of approximately 40 ml (0.04 liter) of cell culture medium containing the highest desired drug concentration. […] The plates are air-dried, the bound stain is solubilized with Tris buffer, and the optical densities read at 515 nm. […]
Label Y when Delta of Log10TGI is at or above 2; anything below gets N.

These solved cases illustrate the format of a correct answer.
1) C[C@@H]1CC[C@H]2[C@@H](C)C(=O)O[C@@H]3O[C@]4(C)CC[C@@H]1[C@]32OO4 ... N
2) CC(=O)O[C@H]1C(=O)[C@@]2(C)[C@H]([C@H](OC(=O)c3ccccc3)[C@]3(O)C[C@H](OC(=O)[C@H](O)[C@@H](NC(=O)c4ccccc4)c4ccccc4)C(C)=C1C3(C)C)[C@]1(OC(C)=O)CO[C@@H]1C[C@@H]2O [Paclitaxel, paclitaxel, reference compound] ... N
3) CC1=C(C=Cc2cccc(C=CC3=C(C)C4CCC(C)C5CCC6(C)OOC45C(O3)O6)c2)OC2OC3(C)CCC4C(C)CCC1C24OO3 (centres unmarked) [VII-g] ... Y
4) CC1=C(C=Cc2cccc(C=CC3=C(C)C4CCC(C)C5CCC6(C)OOC45C(O3)O6)c2)OC2OC3(C)CCC4C(C)CCC1C24OO3 (centres unmarked) [VII-h] ... Y

Next up:
Has CC1=C(C=Cc2cccc(C=CC3=C(C)C4CCC(C)C5CCC6(C)OOC45C(O3)O6)c2)OC2OC3(C)CCC4C(C)CCC1C24OO3 (centres unmarked) [VII-f] a recorded Delta of Log10TGI greater than or equal to 2?
N

====

# Tested on: NCI-H460
# ASSAY_INFO: NCI 60 cell line screen (SRB), Non-Small Cell Lung Cancer
# Type: cell-based
# MEASUREMENT_SETUP: PG=0
ASSAY_METRIC: Log10TGI

The examples below pair each entry with its known result.
1. CC1=C(C=Cc2cccc(C=CC3=C(C)C4CCC(C)C5CCC6(C)OOC45C(O3)O6)c2)OC2OC3(C)CCC4C(C)CCC1C24OO3 (stereo not shown) [VII-g] ... >−4.00 log10M
2. CC1=C(C=Cc2cccc(C=CC3=C(C)C4CCC(C)C5CCC6(C)OOC45C(O3)O6)c2)OC2OC3(C)CCC4C(C)CCC1C24OO3 (stereo not shown) [VII-h] ... >−4.00 log10M
3. CC(=O)O[C@H]1C(=O)[C@@]2(C)[C@H]([C@H](OC(=O)c3ccccc3)[C@]3(O)C[C@H](OC(=O)[C@H](O)[C@@H](NC(=O)c4ccccc4)c4ccccc4)C(C)=C1C3(C)C)[C@]1(OC(C)=O)CO[C@@H]1C[C@@H]2O [Paclitaxel, paclitaxel, reference compound] ... −4.46 log10M

Output measured Log10TGI for this item: CC1=C(C=Cc2cccc(C=CC3=C(C)C4CCC(C)C5CCC6(C)OOC45C(O3)O6)c2)OC2OC3(C)CCC4C(C)CCC1C24OO3 (stereo not shown) [VII-f]
>−4.00 log10M

====

# System: LOX IMVI
# ASSAY_INFO: NCI 60 cell line screen (SRB), Melanoma
# Format: cell-based
# MEASUREMENT_SETUP: PG=+50
ASSAY_METRIC: Log10GI50 (log10M)
Report as a plain number; the unit log10M is understood.

The examples below pair each entry with its known result.
1) CC1=C(C=Cc2cccc(C=CC3=C(C)C4CCC(C)C5CCC6(C)OOC45C(O3)O6)c2)OC2OC3(C)CCC4C(C)CCC1C24OO3 (stereo not shown) [VII-f] ... −5.79
2) CC1=C(C=Cc2cccc(C=CC3=C(C)C4CCC(C)C5CCC6(C)OOC45C(O3)O6)c2)OC2OC3(C)CCC4C(C)CCC1C24OO3 (stereo not shown) [VII-g] ... −7.07
3) CC1=C(C=Cc2cccc(C=CC3=C(C)C4CCC(C)C5CCC6(C)OOC45C(O3)O6)c2)OC2OC3(C)CCC4C(C)CCC1C24OO3 (stereo not shown) [VII-h] ... −7.40

// next item, Log10GI50 requested
Output measured Log10GI50 for this item: CC(=O)O[C@H]1C(=O)[C@@]2(C)[C@H]([C@H](OC(=O)c3ccccc3)[C@]3(O)C[C@H](OC(=O)[C@H](O)[C@@H](NC(=O)c4ccccc4)c4ccccc4)C(C)=C1C3(C)C)[C@]1(OC(C)=O)CO[C@@H]1C[C@@H]2O [Paclitaxel, paclitaxel, reference compound]
−11.80

====

# Tested on: 786-0
# ASSAY_INFO: NCI 60 cell line screen (SRB), Renal Cancer
# Assay type: cell-based
# MEASUREMENT_SETUP: PG=+50
ASSAY_METRIC: Log10GI50 (log10M)
Report as a plain number; the unit log10M is understood.

The examples below pair each entry with its known result.
1. CC1=C(C=Cc2cccc(C=CC3=C(C)C4CCC(C)C5CCC6(C)OOC45C(O3)O6)c2)OC2OC3(C)CCC4C(C)CCC1C24OO3 (centres unmarked) [VII-f] ... −5.40
2. CC1=C(C=Cc2cccc(C=CC3=C(C)C4CCC(C)C5CCC6(C)OOC45C(O3)O6)c2)OC2OC3(C)CCC4C(C)CCC1C24OO3 (centres unmarked) [VII-g] ... −6.10
3. CC(=O)O[C@H]1C(=O)[C@@]2(C)[C@H]([C@H](OC(=O)c3ccccc3)[C@]3(O)C[C@H](OC(=O)[C@H](O)[C@@H](NC(=O)c4ccccc4)c4ccccc4)C(C)=C1C3(C)C)[C@]1(OC(C)=O)CO[C@@H]1C[C@@H]2O [Paclitaxel, paclitaxel, reference compound] ... −8.01

Output measured Log10GI50 for this item: CC1=C(C=Cc2cccc(C=CC3=C(C)C4CCC(C)C5CCC6(C)OOC45C(O3)O6)c2)OC2OC3(C)CCC4C(C)CCC1C24OO3 (centres unmarked) [VII-h]
−7.02
